tested on: Marburg virus (MARV); experiment: organism not typed; format: cell-based; conditions: Vero, 72 h, read-out: Percent viral inhibition MARV
Where a name gives a salt, the structure may show the parent alone.
Below, each entry is listed alongside its reported inhibition at 1 µM.
property-measured: inhibition at 1 µM

In [3]: df
Out[3]:
                                    compound  result
 0  CC(=O)NCC1CCN(Cc2cc(Oc3cnc(N4CCN(CCS(C)(=O)=O)CC4)nc3)nc(-c3cc(Cl)cc(Cl)c3)c2)CC1 [Example 285]   80.4%
 1  CNC(=O)NCC1CCN(Cc2cc(Oc3cnc(N4CCN(C[C@@H](C)O)CC4)nc3)nc(-c3cc(Cl)cc(Cl)c3)c2)CC1 [Example 310]     18%
 2  NS(=O)(=O)CC1CCN(Cc2cc(Oc3ccc(N4CCN(CCC(=O)O)CC4)nc3)nc(-c3cc(Cl)cc(Cl)c3)c2)CC1 [Example 38]     50%
 3  COC(=O)C(C)CCN1CCN(c2ncc(Oc3cc(CN4CCC(CNC(C)=O)CC4)cc(-c4cc(Cl)cc(Cl)c4)n3)cn2)CC1 (centres unmarked) [Example 368]   65.4%
 4  CC(=O)NCC1CCN(Cc2cc(Oc3cnc(N4CCCNCC4)nc3)nc(-c3cc(Cl)cc(Cl)c3)c2)CC1 [Example 118]      0%
 5  NC(=O)OCCN1CCN(Cc2cc(Oc3ccc(N4CCN(CCC(=O)O)CC4)nc3)nc(-c3cc(Cl)cc(Cl)c3)c2)CC1 [Example 55]   40.2%
 6  CC(=O)NCC1CCN(Cc2cc(Oc3cnc(N4CCN(CCCS(N)(=O)=O)CC4)nc3)nc(-c3cc(Cl)cc(Cl)c3)c2)CC1 [Example 253]   52.1%
 7  CNC(=O)NCC1CCN(Cc2cc(Oc3cnc(N4CCN(CCC(C)[S+](C)[O-])CC4)nc3)nc(-c3cc(Cl)cc(Cl)c3)c2)CC1 (centres unmarked) [Example 17]   52.9%
 8  CN1CCN(c2ncc(Oc3cc(CN4CCC(NC(N)=O)CC4)cc(-c4cc(Cl)cc(Cl)c4)n3)cn2)CC1 [Example 329]   42.3%
 9  CNC(=O)NCC1CCN(Cc2cc(Oc3cnc(N4CCN(C)CC4)nc3)nc(-c3cc(Cl)cc(Cl)c3)c2)CC1 [Example 70]   5.52%
10  CN1CCN(c2ncc(Oc3cc(CN4CCC(OC5(C(=O)O)CC5)CC4)cc(-c4cc(Cl)cc(Cl)c4)n3)cn2)CC1 [Example 143]   40.5%
11  CC(=O)NCC1CCN(Cc2cc(Oc3cnc(N4CCN(CC(O)C(=O)O)CC4)nc3)nc(-c3cc(Cl)cc(Cl)c3)c2)CC1 (centres unmarked) [Example 316]   54.4%
12  NC1(CO)CCN(c2ncc(Oc3cc(CN4CCC(CC(=O)O)CC4)cc(-c4cc(Cl)cc(Cl)c4)n3)cn2)CC1 [Example 165]   50.9%
13  CCC(=O)NCC1CCN(Cc2cc(Oc3cnc(N4CCN(CCC(C)C(=O)O)CC4)cn3)nc(-c3cc(Cl)cc(Cl)c3)c2)CC1 (centres unmarked) [Example 392]   60.6%
14  COC(=O)NC(=O)NCC1CCN(Cc2cc(Oc3cnc(N4CCN(C)CC4)nc3)nc(-c3cc(Cl)cc(Cl)c3)c2)CC1 [Example 325]      0%
15  O=C(O)CC1CCN(Cc2cc(Oc3cnc(N4CCN(CCF)CC4)nc3)nc(-c3cc(Cl)cc(Cl)c3)c2)CC1 [Example 236]   68.5%
16  CN1C[C@@H]2C[C@H]1CN2c1ccc(Oc2cc(CN3CCC(CC(=O)O)CC3)cc(-c3cc(Cl)cc(Cl)c3)n2)nn1 [Example 357]    100%
17  CC(C)(O)CN1CCN(c2cnc(Oc3cc(CN4CCC(CC(=O)O)CC4)cc(-c4cc(Cl)cc(Cl)c4)n3)cn2)CC1 [Example 343]     51%
18  O=C(O)C1[C@H]2CCN(Cc3cc(Oc4cnc(N5CCN6CCC5C6)nc4)nc(-c4cc(Cl)cc(Cl)c4)c3)CC[C@@H]12 (some centres unmarked) [Example 337]   37.6%
19  CCN1CCCN(c2ccc(Oc3cc(CN4CCC(CC(=O)O)CC4)cc(-c4cc(Cl)cc(Cl)c4)n3)nn2)CC1 [Example 355]   52.4%
20  CNCc1cc(Oc2cnc(N3CCN(CCCS(C)(=O)=O)CC3)nc2)nc(-c2cc(Cl)cc(Cl)c2)c1 [Example 37]   56.6%
21  CC(=O)NCC1CCN(Cc2cc(Oc3ccc(N4CCN(CCC(=O)O)CC4)nc3)nc(-c3cc(Cl)cc(Cl)c3)c2)CC1 [Example 11, hydrochloride]   41.6%
22  CC(=O)NCC1CCN(Cc2cc(Oc3ccc(N4CCN(CCC(N)=O)CC4)nc3)nc(-c3cc(Cl)cc(Cl)c3)c2)CC1 [Example 13]   25.4%
23  O=C(O)CC1CCN(Cc2cc(Oc3cnc(N4CCN(CCO)CC4)nc3)nc(-c3cc(Cl)cc(Cl)c3)c2)CC1 [Example 306]   51.1%
24  C[C@]1(O)C[C@H](N2CCN(c3ncc(Oc4cc(CN5CCC(CC(=O)O)CC5)cc(-c5cc(Cl)cc(Cl)c5)n4)cn3)CC2)C1 [Example 25]   65.5%
25  CC(=O)NCC1CCN(Cc2cc(Oc3cnc(N4CCN(CCC(N)=O)CC4)nc3)cc(-c3cc(Cl)cc(Cl)c3)c2)CC1 [Example 170]   10.3%
